Attribution: the DeepSol protein solubility set

# PROTOCOL SUMMARY: soluble on expression in E. coli; label from the status in PepcDB or PDB records
TEST READOUT: soluble on expression in E. coli

Use these answered entries as a reference point.
{"RESIDUE STRING": "DIELTQTPVSLSASVGETVTITCRASENIYSYLAWYQQKQGKSPQFLVYNAKTLGEGVPSRFSGSGSGTQFSLKINSLLPEDFGSYYCQHHYGTPPLTFGGGTKLEIKREQKLISEEDLM", "soluble on expression in E. coli": "soluble"}
{"RESIDUE STRING": "MGSDKIHHHHHHMVAQIQELEAQHWVKTRSSLDPNESTFLIWKGKIYAFIPGEKRQLLFKILGLSVSRCIPTAEGSWDFTSRELTYYLNPKTDEILRKWENPWTSETVPVIHVANNPVQGKFEGNFPAQVDGDSTTFVFDIFPYYPNPLADDPKFAEYSPNPIYQAAELFKLTVPTADLFNSALPSVSELKLSWDRIGQWLPWMKMGDRPGQLIYSAVGSKVNGLTELPPLLQDEINNRIPLYKQAPKALIDGEDMTSWLYFQKHFPAYLAGEIFPLPQAEEL", "soluble on expression in E. coli": "not soluble"}
{"RESIDUE STRING": "QPTAPKDFSSGFWDFNDGTTQGFGVNPDSPITAINVENANNALKISNLNSKGSNDLSEGNFWANVRISADIWGQSINIYGDTKLTMDVIAPTPVNVSIAAIPQSSTHGWGNPTRAIRVWTNNFVAQTDGTYKATLTISTNDSPNFNTIATDAADSVVTNMILFVGSNSDNISLDNIKFTK", "soluble on expression in E. coli": "soluble"}
{"RESIDUE STRING": "MNLNFIVPDINMTFGDMKFMGLNRERYVYDRENNKRTDVLESRIYNIASAVQGGQIEVTIPEYAGAKEIPPFADIELKNPKISAMATSQRDSTYANVMWKLEADDIVVKGGSSVKPAAATGGNEKKLEHHHHHH", "soluble on expression in E. coli": "not soluble"}
{"RESIDUE STRING": "SFALEELPRIPDFTERAICELFELYASIESVQLPPQSSDATNSSSATAPGNIFSAERGPRYLGPRALVRFFTELGVDMRSLAALAFAWLGRWQYPCHCREEGFARGVRYALWALDRRQHNEPRRWEQVQATCSTLLETSIWPRESTALFERLRSAFPDAVLSYTQRSAEAALDFYLFAFDLNRQSPYRRSLSLTDARYLWKQFLSESCYLATPASPGTPAGVANQPWRYLEHFDAYLESRCGMAGTIISRDTWYWVLMFARETQVAGSSFFANYNQGDAWPVLLDGFVEYLRENKLLSS", "soluble on expression in E. coli": "soluble"}
{"RESIDUE STRING": "MAHHHHHHMAALKNKIHRIGKRKGATLKDVSAWRWIKTAARHFKQEGKIFVPNCTEIMKSSHGRERAPQNPDWYYIRCAAVLRAIYLRPGVGYGGLSKRFGNKKNYGSRPEHTVTSSTGPLHWACKSLTKLGLVEPGAQSGQRLTRKGHKFADSLAFQVQIRKFGAST", "soluble on expression in E. coli": "soluble"}
{"RESIDUE STRING": "GGTSNEVAQFLSKENQVIVRMRGLPFTATAEEVVAFFGQHCPITGGKEGILFVTYPDGRPTGDAFVLFACEEYAQNALRKHKDLLGKRYIELFRSTAAEVQQVLNRFSSA", "soluble on expression in E. coli": "soluble"}

Please find the next sequence below.
Sample `MVKVEDAIVARLESHGYHFEILVDPDAIERIRKGNIDIENDLAFPEVYKDVRKGEKASDDSLKEAFKTTVIAQVAIEIVKKGQIQLTTEQRREMYDERRKQIVNLIAREGINPQTNTPHTPYRISQAMDEAKVKIDPLKPAEDQVQNVLKAIMPIIPIRLEKAKIAVKLIGDAYGKLYGELAKSGYM` ; soluble on expression in E. coli observed: not soluble

###

# PROTOCOL SUMMARY: soluble on expression in E. coli; label from the status in PepcDB or PDB records

{"RESIDUE STRING": "GPGSMPLMSADGSGELPPVMLHRYPVTLGLPTADPYALAIECMLRIVGAHYKKRDGGLPVTLEVPVDGRNKPAMKRHEGLTSCLQLIESATHQDAEVITSALEPEALCVRLTAEVVLIPAFVYITHSDAGILRNAIQKAVEPKVASMWQRFRGSYSRHVVQQTSFCRSYKNMGEAIENVERCLRAIEAICSINTAGNGMFILGTERPCSADALIYAAASSFFHADFASRQASGDIIAMQQRLREGCPTLLTYVERLRGLYFEDYSAFYHLRAPTCGMEGEATQKAAEETFVRGRWKVLAFTGVFSITYFLVANIDVFSAVLLHYLEDDGEEEFLEDEE", "soluble on expression in E. coli": "not soluble"}
{"RESIDUE STRING": "MGSDKIHHHHHHMNLEEENTIFKPLYSLKHSPINAYFSKNSDDFVVRERPLYEFSGKGEHLILHINKKDLTTNEALKILSEASGVKIRDFGYAGLKDKQGSTFQYLSMPKKFESFLSNFSHPKLKILEIFTHENKLRIGHLKGNSFFIRLKKVLPSDALKLEQALMNLDKQGFANYFGYQRFGKFGDNYKEGLEILRGKKMKNVKMKEFLISAFQSELFNRYLSKRVELSHFANDFSEKELIQIYKISKEEAKELKKQEQFFKLLKGEVLGHYPFGKCFLCEDLSAELGRFKARDISAMGLLIGAKAYETGEGLALNLENEIFKDTLEFKAKMQGSRRFMWGYLEELKWRYDEEKAHFCIEFFLQKGSYATVVLEEILHKNLFE", "soluble on expression in E. coli": "not soluble"}

###

# PROTOCOL SUMMARY: soluble on expression in E. coli; label from the status in PepcDB or PDB records
TEST READOUT: soluble on expression in E. coli

{"RESIDUE STRING": "MGSDKIHHHHHHMIEITHGDILRADTEAIVNTVNCVGVMGRGIALQFKKAWPDNFKAYAAACNSKNVQPGKMFIFETGQLANPRFIINFPTKRHWKGASRIEDIESGLVALVADIQRLGIKSIAIPPLGAGLGGLDWLVVRDKIEAAMQPLTDVQILLYEPAGAPQNDRIAKQKEVPKMTAGRAVLIELMQRYLKGLLDPTVSLLEVHKLLYFMQEAGEPLRLKYEKAHYGPYAQNLRHVLNAIEGHFISGYADGGDKPEKELRLVPGAVKEAQEFLEQHPDTRERFTKVSELVEGFESPLGLELLATVHWLNKYEHVRSTDQVIESVHSWNTRKQLFTARQITIAEKVLARQNWLSA", "TEST RESULT": "not soluble"}
{"RESIDUE STRING": "MGSDKIHHHHHHMYNEGVTSPSQLARKKNATDKWHGSSIRKILENPHYTGTLQQCREYRPSVTSKRRRSVNLENQIIIEKSHEPIIPLEDFLIVQEILITRKRRRPQAEVHLFTNTAVCKDCRRSMHFKKNRKGYVCGSYNKHGLKACSDHYVSEIDLTDKVITNLNKIYLKFSKENYFKELSEKALKYKEKIESKIIEINEKLNDKKRDKSNLVISLANGVISKEDYQLAINITNEDISNFETTLHQLSKDLEFQKIEKEIIDFKKSLDKFMKEGTLTPEMLHLLVDEIEVHANGTIEINYRFREPTVPSA", "TEST RESULT": "not soluble"}

###

# PROTOCOL SUMMARY: soluble on expression in E. coli; label from the status in PepcDB or PDB records

{"RESIDUE STRING": "MKKVEVLKRLENAGVIAVLRADSKEEALKISHAVVEGGMIGLELTFTVPQADEVIRSLVETYHDEKDIVIGAGTVLDAVTARLAIMAGAEFIVSPSFNRETAEICNLYQVPYLPGCMTITEMQTALKSGVDIVKLFPGSTYGPSIISAFQAPLPYLNIMPTGGVSLDNMASWFEAGVTAVGVGGNLLAHAKTGEFGKVTALAKQYMAKFREIKEN", "soluble on expression in E. coli": "not soluble"}
{"RESIDUE STRING": "MGSDKIHHHHHHHEEADYSQEAHHLVEFGTLLQDDPNVIVPKYHADLSTRDVLAMDFVPSHPIDDLEAADQSERDRVATQLIALMMREVFSFQRVQSDPNFANFRWQPDTGRVVLLDFGATRVLSDNLVNAARQVLRPALDNDLTALANALRELGLLDDALPDQARKTILEMVALANEPMMDPDGFDFGNTSLVTELRTSGMALGQDRSIQSIPPIEVLYLQRKAAGLFLLATRLRARVDLRSLFKS", "soluble on expression in E. coli": "not soluble"}

###

# PROTOCOL SUMMARY: soluble on expression in E. coli; label from the status in PepcDB or PDB records
TEST READOUT: soluble on expression in E. coli

{"RESIDUE STRING": "RMNLFDLGTHHALVDYAHNPAGYEAVGAFVKNWPGERIGVVGGPGDRRDEDLILLGRIAAAVFDRIIVKEDDDKRGRHAGEVADLIRQGIQEENPNCQYETILDEQRALNVALDEAPQEALVVIFPES", "TEST RESULT": "not soluble"}
{"RESIDUE STRING": "NGWVWKLGMNLTHYKNKVTELPLKDMPQSGVNKLQVGRSVYDFYMKEWAGVDPDNGNPLWYMDEKDANDNLTGKRVTTSDYASANYYYVNKSSLPKVYGGFNTSLSWKGFDLSAIFAYSIGGYIYNRDITMILHNGSLEGRDWSTEILKRWTPENRYTDVPALSTTSNNWNSASTRFLQNNSYMRLKNLTLSYDLPKQWISKLALSSVQVFVQGDNLFTIHRNQGLDPEQGITGITYYRYPAMRTISGGINLSF", "TEST RESULT": "not soluble"}
{"RESIDUE STRING": "MSLDEKKLKALAVELAKGLKTEADLNSFSRMLAKLTVETVLNAELADHPGYEKNAPKTGSNTRNGYSSKTVLCDDGEIELNTPRDRENTFEPQLLKKHQTRITQMDSQILSLYAKGMTTREIVATFKEMYDANVSPSLISKVTDAVKEQVTERQNRQPDALYPIVYMDCIVVKVRQNGSVINKAVFLALGINTEGQKELLGMWLAENEGEKFWLSVLTELKTRGVQDILIACVDGLKGFPDAINSVFPQPHIQLCIIHMVRNSLKYVAWKGYKVATSGLRLRPKRRHEGHHHHHH", "TEST RESULT": "not soluble"}
